Where do these numbers come from? They come from the antibiotic and cytotoxicity screens of Wong et al. (2023).

Test system: HepG2
assayProtocol: cytotoxicity call (relative viability < 0.9)
measurementContext: 10 µM
The campaign covered roughly 39,000 compounds. About 3,300 (8.5%) were called active. The list comes from a sample in which actives are over-represented; it also holds close analogues and randomly drawn compounds.
Use one of these outcomes when replying: active, inactive

Worked examples follow.
>  <smilesEntry>
C[C@@H]1CN([C@@H](C)CO)C(=O)c2cccc(NC(=O)C3CC3)c2O[C@@H]1CN(C)Cc1ccc(Oc2ccccc2)cc1

>  <labelClass>
inactive

$$$$
>  <smilesEntry>
CO[C@@H]1CN(C)C(=O)c2cc(NC(=O)c3cc(C)on3)ccc2OC[C@@H](C)N(S(=O)(=O)c2ccccc2)C[C@H]1C

>  <labelClass>
inactive

$$$$
>  <smilesEntry>
CC(C)NC(=O)Cn1ccc([N+](=O)[O-])n1

>  <labelClass>
inactive

$$$$
>  <smilesEntry>
COc1ccc(C#Cc2ccc([C@H]3[C@H](CO)N4CCCCN(S(=O)(=O)c5cn(C)cn5)C[C@@H]34)cc2)cc1

>  <labelClass>
inactive

$$$$
>  <smilesEntry>
COc1ccccc1CNC(=O)C[C@@H]1C[C@@H]2c3cc(NC(=O)Cc4ccncc4)ccc3O[C@@H]2[C@@H](CO)O1

>  <labelClass>
inactive

$$$$
>  <smilesEntry>
O=C(Nc1ccc2c(c1)[C@@H]1C[C@@H](CC(=O)N3CCc4ccccc4C3)O[C@@H](CO)[C@@H]1O2)C1CCOCC1

>  <labelClass>
inactive

$$$$
>  <smilesEntry>
CC(C)N1C[C@H](C)[C@@H](CN(C)Cc2ccc(Oc3ccccc3)cc2)Oc2c(NC(=O)C3CCN(C)CC3)cccc2C1=O

>  <labelClass>
active

$$$$
>  <smilesEntry>
C[C@H](CO)N1C[C@H](C)[C@@H](CN(C)Cc2ccc(Oc3ccccc3)cc2)Oc2c(NC(=O)C3CC3)cccc2C1=O

>  <labelClass>
inactive

$$$$
>  <smilesEntry>
Cc1ccc(S(=O)(=O)N(C)C[C@H]2Oc3ccc(NS(=O)(=O)c4cn(C)cn4)cc3CC(=O)N([C@@H](C)CO)C[C@@H]2C)cc1

>  <labelClass>
inactive

$$$$
>  <smilesEntry>
Cc1ccc(S(=O)(=O)N(C)C[C@H]2Oc3cc(C#Cc4ccncc4)ccc3S(=O)(=O)N([C@H](C)CO)C[C@@H]2C)cc1

>  <labelClass>
active

$$$$

-- ask // param item: CC(C)N1C[C@@H](CN(C)Cc2ccc(Oc3ccccc3)cc2)Oc2c(NC(=O)c3ccncc3)cccc2C1=O ; yields the recorded call
-- reply active

-- ask Test call for this compound, please: C[C@@H]1CN([C@@H](C)CO)C(=O)c2cccc(NC(=O)c3ccncc3)c2O[C@@H]1CN(C)Cc1ccc(Oc2ccccc2)cc1
-- reply inactive

-- ask Give the logged outcome of this assay for the following compound: Cc1ccc(Oc2ccc(CN)cc2)cc1
-- reply active

-- ask Please share the test call associated with C[C@H]1CN([C@@H](C)CO)C(=O)c2c(c3ccccc3n2C)-c2ccccc2CO[C@@H]1CN(C)CC1CCCCC1 .
-- reply active

-- ask Outcome? CN(C)CCOc1ccc(CN)cc1
-- reply inactive

-- ask GET /call?item= CN(CCCCCCCCCCN(C)C(=O)Oc1cccc([N+](C)(C)C)c1)C(=O)Oc1cccc([N+](C)(C)C)c1 returns the recorded outcome of this test.
-- reply inactive

-- ask // param item: COc1ccc(C#Cc2ccc([C@@H]3[C@H](CO)N4CCCCN(S(=O)(=O)c5cn(C)cn5)C[C@@H]34)cc2)cc1 ; yields the recorded call
-- reply active

-- ask Fill in: this test's call for C[C@@H]1CCCCO[C@@H](CN(C)C(=O)CCC(F)(F)F)[C@H](C)CN([C@@H](C)CO)C(=O)c2cc(NC(=O)CCC(F)(F)F)ccc2O1 is ___
-- reply inactive

-- ask Please share the test call associated with CN(C)CC#Cc1ccc([C@@H]2[C@@H](CO)N3CCCCN(C(=O)CN(C)C)C[C@@H]23)cc1 .
-- reply inactive

-- ask For CC(C)N1CC[C@H](CN(C)Cc2ccc(Oc3ccccc3)cc2)Oc2c(NC(=O)c3ccncc3)cccc2C1=O , which call appears in the assay record?
-- reply inactive

-- ask What did this assay record as the result for C[C@@H]1CN([C@H](C)CO)C(=O)c2cccc(NC(=O)C3CC3)c2O[C@H]1CN(C)Cc1ccc(Oc2ccccc2)cc1 ?
-- reply inactive

-- ask Call for entry C[C@H]1CN([C@@H](C)CO)C(=O)c2cccc(NC(=O)C3CC3)c2O[C@@H]1CN(C)Cc1ccc(Oc2ccccc2)cc1 :
-- reply inactive

-- ask Test call for this compound, please: CN(C)CC#Cc1ccc([C@@H]2[C@H](CO)N3CCCCN(C(=O)CN(C)C)C[C@@H]23)cc1
-- reply inactive

-- ask Can you look up the reported call for CN(C)CC#Cc1ccc([C@H]2[C@@H](CO)N3CCCCN(C(=O)CN(C)C)C[C@H]23)cc1 for me?
-- reply inactive

-- ask Called result for NCc1ccc(-c2ccc(Br)cc2)cc1
-- reply inactive

-- ask Answer briefly: the call reported for C[C@@H]1CN([C@@H](C)CO)S(=O)(=O)c2ccc(Br)cc2O[C@H]1CN(C)CC1CCOCC1 in this assay.
-- reply inactive

-- ask What call does the record list for O=C(NCCO[N+](=O)[O-])c1cccnc1 ?
-- reply inactive

-- ask Fill in: this test's call for COc1cccc(C#Cc2ccc3c(c2)O[C@@H](CN(C)C(C)=O)[C@H](C)CN([C@H](C)CO)S3(=O)=O)c1 is ___
-- reply inactive

-- ask Lab log entry: Cc1noc(C)c1NC(=O)N(C)C[C@@H]1OCCCC[C@H](C)Oc2ccc(NS(=O)(=O)c3ccccc3)cc2C(=O)N([C@H](C)CO)C[C@@H]1C — outcome as called in the assay?
-- reply inactive

-- ask Please let me know the test result on file for Cc1ccc(S(=O)(=O)N(C)C[C@@H]2Oc3cc(C#Cc4ccncc4)ccc3S(=O)(=O)N([C@@H](C)CO)C[C@H]2C)cc1 .
-- reply active

-- ask Which outcome was entered for the compound C[C@@H]1CN([C@@H](C)CO)C(=O)c2c(c3ccccc3n2C)-c2ccccc2CO[C@H]1CN(C)CC1CCCCC1 in this test?
-- reply inactive

-- ask Called result for CC(C)N1C[C@H](C)[C@@H](CN(C)Cc2ccc(Oc3ccccc3)cc2)Oc2c(NC(=O)C3CCNCC3)cccc2C1=O
-- reply active
